Source of measurements: ChEMBL document CHEMBL2331461

molecular target: Tumor necrosis factor (Homo sapiens); experiment: Inhibition of TNFalpha (unknown origin)-induced NF-kappaB activation in mouse NIH/3T3 cells assessed as inhibition of NF-kappaB binding to DNA at 20 uM after 6 hrs by luciferase reporter gene assay; assay type: cell-based; conditions: NIH3T3
Activity calls are given as the source filed them. No cut-off for these calls is given here.
// one of active, inactive, no free text

Example cases with answers are listed next.
- COC(=O)[C@@H]1C(c2cccc(Cl)c2)=NO[C@H]1c1cc(OC)c(O)c2c1C[C@@H]1[C@@H]3C=C(OC)C(=O)C[C@]23CCN1C: inactive
- COC(=O)[C@H]1C(c2ccc(C)cc2)=NO[C@@H]1c1cc(OC)c(O)c2c1C[C@@H]1[C@@H]3C=C(OC)C(=O)C[C@]23CCN1C: active
- COC(=O)[C@@H]1C(c2cccc(C)c2)=NO[C@H]1c1cc(OC)c(O)c2c1C[C@@H]1[C@@H]3C=C(OC)C(=O)C[C@]23CCN1C: active

Read the next record carefully.
Ask: Lab log entry: "COC(=O)[C@H]1C(c2ccc(Br)cc2)=NO[C@@H]1c1cc(OC)c(O)c2c1C[C@@H]1[C@@H]3C=C(OC)C(=O)C[C@]23CCN1C" — outcome as called in the assay?
Reply: active
